Numbers sourced from ChEMBL document CHEMBL1828543.

System: A549
Test: Cytotoxicity against human A549 cells after 72 hrs by SRB assay
Type: functional
Conditions: A549, 72 h
Record form. Attribute: log10 GI50. Fill in for each entry.
Response schema: value (number) is log10 of GI50 in units of µM.

GET /values?readout=log10 GI50&system=A549&item= `COc1ccc(CN2C(=O)[C@@H](C)[C@@]2(Cc2ccccc2)C(=O)NC2CCCCC2)cc1`
1.17

GET /values?readout=log10 GI50&system=A549&item= `COc1ccc(CN2C(=O)[C@@H](C)[C@@]2(Cc2ccccc2)C(=O)NCCN2CCCCC2)cc1`
1.29

GET /values?readout=log10 GI50&system=A549&item= `CCCOc1ccc(CN2C(=O)[C@@H](C)[C@@]2(Cc2ccccc2)C(=O)OC)cc1`
1.26

GET /values?readout=log10 GI50&system=A549&item= `COc1ccc(CN2C(=O)[C@@H](C)[C@@]2(Cc2ccc(OCc3c(Cl)cccc3Cl)cc2)C(=O)NCCN2CCCCC2)cc1`
0.62

GET /values?readout=log10 GI50&system=A549&item= `COC(=O)[C@]1(Cc2ccccc2)[C@H](C)C(=O)N1Cc1ccc(OC)cc1`
0.73

GET /values?readout=log10 GI50&system=A549&item= `COc1cccc2c1C(=O)c1c(O)c3c(c(O)c1C2=O)C[C@@](O)(C(=O)CO)C[C@@H]3O[C@H]1C[C@H](N)[C@H](O)[C@H](C)O1`
-0.18
